- experimental_system: polyclonal IgG (Gammanorm, Octapharma, Sweden)
- experiment_summary: SPR (Biacore 8K+), variant amine-coupled to CM5, Gammanorm as analyte, steady state fit
Decide using Kd alone. Strictly below 80 nM: 1. Equal to or above 80 nM: -1.

binder: pAM259 (Protein L C3 domain; H, H, Y at positions 10, 45, 60) (designed binder) PKEEVTIKVHLIFADGKIQTAEFKGTFEEATAKAYAYANLLAKEHGEYTADLEDGGNTIYIKFAGKETPETPEE
label_value: -1

binder: pAM261 (Protein L C4 domain; N10H, N45H, N60Y) (designed binder) PKEEVTIKVHLIFADGKTQTAEFKGTFEEATAEAYRYADLLAKVHGEYTADLEDGGYTIYIKFAGKEQPGENPG
label_value: 1

binder: pAM239 (Protein L B4 domain; N10H, N45H, N60Q) (designed binder) PKEEVTIKAHLIYADGKTQTAEFKGTFAEATAEAYRYADLLAKEHGKYTADLEDGGYTIQIRFAGKKVDEKPEE
label_value: 1

binder: pAM253 (Protein L B4 domain; N10H, N45H, N60Y) (designed binder) PKEEVTIKAHLIYADGKTQTAEFKGTFAEATAEAYRYADLLAKEHGKYTADLEDGGYTIYIRFAGKKVDEKPEE
label_value: 1
